- Procedure Summary: Inhibition of HIV integrase by MWPA-Mn enzymatic assay
- Parameters: species or system Human immunodeficiency virus
pIC50: −log10 of the molar value.
Tick rule met if pIC50 is 4 or greater. Tick rule not met if pIC50 is less than 4.

Request: Say whether CN1CC(c2ccc(OCc3ccc(F)cc3)cn2)=C(O)C1=O shows pIC50 of 4 or more.
Result: rule met

Request: Say whether O=C(O)/C(O)=C/c1ccc(OCc2ccc(F)cc2)cn1 shows pIC50 of 4 or more.
Result: rule met

Request: Say whether O=C(O)/C(O)=C/c1cc(CCc2ccc(F)cc2)ccn1 shows pIC50 of 4 or more.
Result: rule met

Request: Say whether CNC(=O)/C(O)=C/c1cc(CCc2ccccc2)ncn1 shows pIC50 of 4 or more.
Result: rule met

Request: Say whether O=C(/C(O)=C/c1cc(CCc2ccccc2)ncn1)N1CCOCC1 shows pIC50 of 4 or more.
Result: rule not met

Request: Say whether O=C(O)/C(O)=C/c1ccc(Cc2ccc(F)cc2)cn1 shows pIC50 of 4 or more.
Result: rule met
